- assayed.target: T1, B7-H3 on B7-H3-expressing CHO cells (Genescript) (UniProt Q5ZPR3 29-534, limits assumed)
- T1 construct: whole, on cells; also called CHO-K1/B7-H3; MFI B7-H3
- T1 sequence (looked up): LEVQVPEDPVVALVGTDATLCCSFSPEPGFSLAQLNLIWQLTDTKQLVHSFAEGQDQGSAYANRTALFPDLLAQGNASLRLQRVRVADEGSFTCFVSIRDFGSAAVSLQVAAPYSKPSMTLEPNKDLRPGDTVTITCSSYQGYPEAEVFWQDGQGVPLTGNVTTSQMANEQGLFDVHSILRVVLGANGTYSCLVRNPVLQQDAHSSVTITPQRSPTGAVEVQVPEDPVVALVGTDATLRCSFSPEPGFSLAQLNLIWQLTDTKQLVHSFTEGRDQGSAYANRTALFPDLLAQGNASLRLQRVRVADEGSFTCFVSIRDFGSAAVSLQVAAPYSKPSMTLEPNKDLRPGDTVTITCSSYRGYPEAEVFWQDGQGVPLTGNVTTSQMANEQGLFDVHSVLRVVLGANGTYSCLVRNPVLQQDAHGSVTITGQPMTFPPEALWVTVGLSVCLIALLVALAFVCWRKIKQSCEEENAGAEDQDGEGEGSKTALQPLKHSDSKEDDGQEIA
- assay.comment: flow cytometry, B7-H3-expressing CHO cells, 10 ug/ml
quantity: MFI @ 10 ug/ml (MFI)
Form entry: value (MFI) — number only.

query: Indicate its recorded MFI @ 10 ug/ml; the binder in question is 40633p1.2.A10 (scFv, V domains shown, Tested as scFv-Fc (Expi293 supernatant)) VH: EVQLLESGGGLVQPGGSLRLSCAASGFTVSYYGMSWVRQAPGKGLEWVSVIKQDGSEEYYADSVKGRFTISRDNSKNTLYLQMNSLRAEDTAVYYCARHWNDYSNGMNVWGQGTTVTVSS VL: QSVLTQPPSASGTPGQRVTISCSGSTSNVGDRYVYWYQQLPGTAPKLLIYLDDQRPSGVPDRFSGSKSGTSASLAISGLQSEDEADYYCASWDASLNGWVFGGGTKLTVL
result: 63500

// moving on: another record for MFI @ 10 ug/ml
query: Indicate its recorded MFI @ 10 ug/ml; the binder in question is 40633p1.1.B3 (scFv, V domains shown, Tested as scFv-Fc (Expi293 supernatant)) VH: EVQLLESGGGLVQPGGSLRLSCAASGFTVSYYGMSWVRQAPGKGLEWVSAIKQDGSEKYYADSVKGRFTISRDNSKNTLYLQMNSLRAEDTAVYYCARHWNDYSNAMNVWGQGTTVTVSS VL: QSVLTQPPSASGTPGQRVTISCSGSTSNIGRESVYWYQQLPGTAPKLLIYTIDQRPSGVPDRFSGSKSGTSASLAISGLQSEDEADYYCGTWDDSLNAWVFGGGTKLTVL
result: 74700
